# System: CCRF-CEM
# procedureDetails: NCI tumour cell line growth inhibition, 48 h
Activity calls are given as the source filed them. Cut-off read from the data, not from the text of the source: active = GI50 up to about 1.1 µM and inactive = higher.
readout: GI50

Input line: Given the molecule CCOc1ccccc1/N=N/c1ccc2oc(=O)c(C(=O)Nc3cccc(C)c3)cc2c1 , what is its reported GI50?
Output line: 18.7 µM (inactive)

Input line: Given the molecule CCOC(=O)c1cc2cc([N+](=O)[O-])ccc2oc1=O , what is its reported GI50?
Output line: > 100 µM (inactive)

Input line: Given the molecule COC1=CC(=O)N(C(=O)C2CSC(C(CO)NC(=O)c3csc(/C=N/O)n3)=N2)C1 (stereo not given) , what is its reported GI50?
Output line: > 100 µM (inactive)

Input line: Given the molecule C/C(=N\Nc1ccccc1)c1sc(-c2nc(C)c(/C(C)=N/Nc3ccccc3)s2)nc1C , what is its reported GI50?
Output line: 28.3 µM (inactive)

Input line: Given the molecule CCN(CC)c1ccc2cc(-c3nc(O)c4ccccc4n3)c(=N)oc2c1 , what is its reported GI50?
Output line: > 100 µM (inactive)

###

Can you tell me GI50 for the items I'm about to list?
# Test system: Malme-3M
# procedureDetails: NCI tumour cell line growth inhibition, 48 h
Activity calls are given as the source filed them. Rule as the data show it: active = GI50 up to about 1.1 µM and inactive = higher.

Input line: Given the compound CC(=O)Nc1ccc2nc(-c3cccc(Cl)c3)cc(O)c2c1 , what is its reported GI50?
Output line: 3.18 µM (inactive)

Input line: Given the compound CCCCCCCCCCCCCCCC(=O)OCC1OC(n2cc(F)c(=O)[nH]c2=O)C(N)C(O)C1O (configuration not stated) , what is its reported GI50?
Output line: 19.4 µM (inactive)

Input line: Given the compound Cc1cn(C2CCN(CC3COC(C)(C)O3)O2)c(=O)[nH]c1=O (configuration not stated) , what is its reported GI50?
Output line: > 100 µM (inactive)

Input line: Given the compound Cc1c(C#N)c2nnn(-c3cccc(Cl)c3)c(=O)n2c1-c1ccccc1 , what is its reported GI50?
Output line: 9.48 µM (inactive)

Input line: Given the compound CCOP(=O)(COCCn1nc(Br)c(=O)[nH]c1=O)OCC , what is its reported GI50?
Output line: > 100 µM (inactive)

Input line: Given the compound c1ccc(CNC2CC(NCc3ccccn3)CC(NCc3ccccn3)C2)nc1 (configuration not stated) , what is its reported GI50?
Output line: 3.52 µM (inactive)

Input line: Given the compound N#Cc1ccccc1/C=N/O , what is its reported GI50?
Output line: > 100 µM (inactive)

Input line: Given the compound CC1(C)C2CCC13C(=O)C1OC3(C2)C2C(=O)N(c3ccccc3)C(=O)C12 (configuration not stated) , what is its reported GI50?
Output line: > 100 µM (inactive)

Input line: Given the compound Nc1cccc2nnccc12 , what is its reported GI50?
Output line: > 100 µM (inactive)

Input line: Given the compound CCOC(=O)c1nnsc1NC(=O)NN , what is its reported GI50?
Output line: > 100 µM (inactive)

Input line: Given the compound CC1=NN(c2ccccc2)C(=O)/C1=C1\SC(c2ccccc2)(c2ccccc2)c2ccccc21 , what is its reported GI50?
Output line: > 100 µM (inactive)

Input line: Given the compound COc1cc(C2S/C(=C/c3ccccc3)C(=O)N2c2ccc([N+](=O)[O-])cc2)cc(OC)c1OC (configuration not stated) , what is its reported GI50?
Output line: > 100 µM (inactive)

Input line: Given the compound NC1NCCC(=O)N1CCc1c[nH]c2ccccc12 (configuration not stated) , what is its reported GI50?
Output line: 19.9 µM (inactive)

Input line: Given the compound OC1CCSc2ccccc21 (configuration not stated) , what is its reported GI50?
Output line: > 100 µM (inactive)

Input line: Given the compound COC1=C(C)C(=O)c2c(cc3c(c2O)C(C)(CCC=C(C)C)C(C)O3)C1=O (configuration not stated) , what is its reported GI50?
Output line: > 76.4 µM (inactive)

Input line: Given the compound O=C(CCNC12CC3CC(CC(C3)C1)C2)c1ccccc1 , what is its reported GI50?
Output line: 18.2 µM (inactive)

Input line: Given the compound O=S(=O)(/N=C(\NO)Nc1ccc(Cl)cc1)C1CC=C(c2ccon2)S1 (configuration not stated) , what is its reported GI50?
Output line: 1.55 µM (inactive)

Input line: Given the compound COc1cc2cc(C(=O)N3CC(CCl)c4c3cc(N)c3ccccc43)[nH]c2cc1OCCN(C)C (configuration not stated) , what is its reported GI50?
Output line: 0.0053 µM (active)

Input line: Given the compound N#Cc1nnc2c3c(-c4ccc(Cl)cc4)c(C#N)c(O)nc3nn2c1N , what is its reported GI50?
Output line: 14.4 µM (inactive)

Input line: Given the compound COC(=O)c1cc2c3c(cc(NCCN)c2[nH]1)N(C(=O)c1cc2cc(OC)c(OC)c(OC)c2[nH]1)CC3CCl (configuration not stated) , what is its reported GI50?
Output line: 0.0377 µM (active)

Input line: Given the compound c1cc2cc(Cc3ccc4[nH]ccc4c3)ccc2[nH]1 , what is its reported GI50?
Output line: 15.2 µM (inactive)

Input line: Given the compound COc1ccc(C(=O)C(C(=O)CCC(=O)Nc2ccc(C)c(C)c2)c2ccc(OC)cc2)cc1 (configuration not stated) , what is its reported GI50?
Output line: > 100 µM (inactive)
